Entries and their PBM E-score of 8-mer
- System: PmTbr T-box DNA-binding domain (GST fusion);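 note: 200 nM protein in PBS on universal arrays averaged over duplicate arrays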
- Sequence: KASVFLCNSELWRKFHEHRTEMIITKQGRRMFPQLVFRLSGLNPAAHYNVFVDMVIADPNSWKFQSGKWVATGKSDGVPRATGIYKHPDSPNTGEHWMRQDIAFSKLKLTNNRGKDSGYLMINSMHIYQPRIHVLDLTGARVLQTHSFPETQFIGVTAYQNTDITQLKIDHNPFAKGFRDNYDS
- test: PBM E-score of 8-mer (E-score (dimensionless, -0.5 to 0.5)); Tbr is Tbrain of the sea star Patiria miniata (Pm) or the sea urchin Strongylocentrotus purpuratus (Sp); higher = stronger binding preference
- recorded.conditions: the construct has about 5 more residues each side
Over roughly 33,000 sequences, “E-score (dimensionless, -0.5 to 0.5)” has its median near -0.049; the highest 2% begin near 0.37. The full list was thinned out, with the highest values kept by preference.

- residue.sequence: "GGGTGACA"
  system: "PmTbr T-box DNA-binding domain (GST fusion)"
  PBM E-score of 8-mer: 0.454
- residue.sequence: "AACACCAT"
  system: "PmTbr T-box DNA-binding domain (GST fusion)"
  PBM E-score of 8-mer: 0.389
- residue.sequence: "CGTGTTAG"
  system: "PmTbr T-box DNA-binding domain (GST fusion)"
  PBM E-score of 8-mer: 0.354
- residue.sequence: "GGAGCATA"
  system: "PmTbr T-box DNA-binding domain (GST fusion)"
  PBM E-score of 8-mer: -0.0893
- residue.sequence: "TCTTCCCA"
  system: "PmTbr T-box DNA-binding domain (GST fusion)"
  PBM E-score of 8-mer: 0.114
- residue.sequence: "CCACTTCA"
  system: "PmTbr T-box DNA-binding domain (GST fusion)"
  PBM E-score of 8-mer: 0.13
- residue.sequence: "CGAATCAC"
  system: "PmTbr T-box DNA-binding domain (GST fusion)"
  PBM E-score of 8-mer: 0.124
- residue.sequence: "AAGCGCCG"
  system: "PmTbr T-box DNA-binding domain (GST fusion)"
  PBM E-score of 8-mer: -0.0564
- residue.sequence: "AAGAGCGT"
  system: "PmTbr T-box DNA-binding domain (GST fusion)"
  PBM E-score of 8-mer: -0.119
- residue.sequence: "ATCTTAGA"
  system: "PmTbr T-box DNA-binding domain (GST fusion)"
  PBM E-score of 8-mer: -0.0793
- residue.sequence: "ACACCCCT"
  system: "PmTbr T-box DNA-binding domain (GST fusion)"
  PBM E-score of 8-mer: 0.4
- residue.sequence: "AACCAGCA"
  system: "PmTbr T-box DNA-binding domain (GST fusion)"
  PBM E-score of 8-mer: -0.18
- residue.sequence: "GCAGAAAA"
  system: "PmTbr T-box DNA-binding domain (GST fusion)"
  PBM E-score of 8-mer: -0.0494
- residue.sequence: "ACTCGCCA"
  system: "PmTbr T-box DNA-binding domain (GST fusion)"
  PBM E-score of 8-mer: 0.144
- residue.sequence: "AGAGCCAC"
  system: "PmTbr T-box DNA-binding domain (GST fusion)"
  PBM E-score of 8-mer: -0.0799
- residue.sequence: "ACACCCCC"
  system: "PmTbr T-box DNA-binding domain (GST fusion)"
  PBM E-score of 8-mer: 0.379
- residue.sequence: "CCACCCCG"
  system: "PmTbr T-box DNA-binding domain (GST fusion)"
  PBM E-score of 8-mer: 0.235
- residue.sequence: "TCGTGACA"
  system: "PmTbr T-box DNA-binding domain (GST fusion)"
  PBM E-score of 8-mer: 0.358
- residue.sequence: "AGTGTTTA"
  system: "PmTbr T-box DNA-binding domain (GST fusion)"
  PBM E-score of 8-mer: 0.258
- residue.sequence: "GGTGTTTA"
  system: "PmTbr T-box DNA-binding domain (GST fusion)"
  PBM E-score of 8-mer: 0.399
- residue.sequence: "ACACTTCC"
  system: "PmTbr T-box DNA-binding domain (GST fusion)"
  PBM E-score of 8-mer: 0.428
- residue.sequence: "ACCCCTCT"
  system: "PmTbr T-box DNA-binding domain (GST fusion)"
  PBM E-score of 8-mer: -0.0694
- residue.sequence: "GGCACCAC"
  system: "PmTbr T-box DNA-binding domain (GST fusion)"
  PBM E-score of 8-mer: 0.225
- residue.sequence: "TCACTTCA"
  system: "PmTbr T-box DNA-binding domain (GST fusion)"
  PBM E-score of 8-mer: 0.186
- residue.sequence: "CCAGTTCA"
  system: "PmTbr T-box DNA-binding domain (GST fusion)"
  PBM E-score of 8-mer: -0.052
- residue.sequence: "AGCCTAGC"
  system: "PmTbr T-box DNA-binding domain (GST fusion)"
  PBM E-score of 8-mer: -0.00521
- residue.sequence: "CAATGTCG"
  system: "PmTbr T-box DNA-binding domain (GST fusion)"
  PBM E-score of 8-mer: 0.119
- residue.sequence: "CCACCCCC"
  system: "PmTbr T-box DNA-binding domain (GST fusion)"
  PBM E-score of 8-mer: 0.00912
- residue.sequence: "TCGAAGCA"
  system: "PmTbr T-box DNA-binding domain (GST fusion)"
  PBM E-score of 8-mer: -0.141
- residue.sequence: "ACCACCAA"
  system: "PmTbr T-box DNA-binding domain (GST fusion)"
  PBM E-score of 8-mer: 0.0394
- residue.sequence: "AGGTTATG"
  system: "PmTbr T-box DNA-binding domain (GST fusion)"
  PBM E-score of 8-mer: 0.0583
- residue.sequence: "CCACTTCG"
  system: "PmTbr T-box DNA-binding domain (GST fusion)"
  PBM E-score of 8-mer: 0.254
- residue.sequence: "ACCCCCCT"
  system: "PmTbr T-box DNA-binding domain (GST fusion)"
  PBM E-score of 8-mer: -0.152
- residue.sequence: "GCACCCCA"
  system: "PmTbr T-box DNA-binding domain (GST fusion)"
  PBM E-score of 8-mer: 0.242
- residue.sequence: "CGTGTTAA"
  system: "PmTbr T-box DNA-binding domain (GST fusion)"
  PBM E-score of 8-mer: 0.409
- residue.sequence: "CAAGCATG"
  system: "PmTbr T-box DNA-binding domain (GST fusion)"
  PBM E-score of 8-mer: -0.0451
- residue.sequence: "ACACCCGG"
  system: "PmTbr T-box DNA-binding domain (GST fusion)"
  PBM E-score of 8-mer: 0.346
- residue.sequence: "GCATGTAA"
  system: "PmTbr T-box DNA-binding domain (GST fusion)"
  PBM E-score of 8-mer: -0.124
- residue.sequence: "GCACTTCC"
  system: "PmTbr T-box DNA-binding domain (GST fusion)"
  PBM E-score of 8-mer: 0.365
- residue.sequence: "TGGTGACA"
  system: "PmTbr T-box DNA-binding domain (GST fusion)"
  PBM E-score of 8-mer: 0.409
- residue.sequence: "GTGTAGAA"
  system: "PmTbr T-box DNA-binding domain (GST fusion)"
  PBM E-score of 8-mer: 0.164
- residue.sequence: "GCTGTTAA"
  system: "PmTbr T-box DNA-binding domain (GST fusion)"
  PBM E-score of 8-mer: 0.199
- residue.sequence: "TTGGGAAA"
  system: "PmTbr T-box DNA-binding domain (GST fusion)"
  PBM E-score of 8-mer: -0.102
- residue.sequence: "ACACTTCG"
  system: "PmTbr T-box DNA-binding domain (GST fusion)"
  PBM E-score of 8-mer: 0.427
- residue.sequence: "GCACCCCC"
  system: "PmTbr T-box DNA-binding domain (GST fusion)"
  PBM E-score of 8-mer: 0.226
- residue.sequence: "AACACCAC"
  system: "PmTbr T-box DNA-binding domain (GST fusion)"
  PBM E-score of 8-mer: 0.372
